Each recorded value in this set is attributed to ChEMBL document CHEMBL2034833.

# Tested on: MCF7
# ASSAY OVERVIEW: cells
# TEST CONDITIONS: Homo sapiens, MCF7, 48 h
# Description: Cytotoxicity against human MCF7 cells after 48 hrs by MTT assay
pIC50: −log10 of the molar value.
METRIC: pIC50

COc1ccc(/C=C/C(=O)c2cc(OC)c(OC)c(OC)c2)cc1OCC(=O)Nc1nc2c(C)cccc2s1 = 5.60
COc1ccc(/C=C\c2cc(OC)c(OC)c(OC)c2)cc1O [COMBRETASTATIN A4] = 6.74
CCOc1ccc2nc(NC(=O)COc3cc(/C=C/C(=O)c4cc(OC)c(OC)c(OC)c4)ccc3OC)sc2c1 = 5.38

A: COc1ccc(/C=C/C(=O)c2cc(OC)c(OC)c(OC)c2)cc1OCC(=O)Nc1nc2ccc(OC(F)(F)F)cc2s1
B: COc1ccc(/C=C/C(=O)c2cc(OC)c(OC)c(OC)c2)cc1O
[in] Between A and B , whose measured pIC50 reads higher? Give the label under which the chosen entry appears.
[out] B

====

# ASSAY OVERVIEW: Inhibition of tubulin polymerization at 3 uM after 1 hr by fluorescence assay
METRIC: inhibition (%)

COc1ccc(/C=C/C(=O)c2cc(OC)c(OC)c(OC)c2)cc1O = 62.6
COc1ccc(/C=C\c2cc(OC)c(OC)c(OC)c2)cc1O = 69.7
COC(=O)Nc1nc2cc(C(=O)c3cccs3)ccc2[nH]1 = 59.6
COc1ccc(/C=C/C(=O)c2cc(OC)c(OC)c(OC)c2)cc1OCC(=O)Nc1nc2ccc(OC(F)(F)F)cc2s1 = 63.1
